- measured-on: NVL-SNAP (recombinant NVL WT; SNAP-NVL-3xFlag) (Homo sapiens)
- Sequence (O15381 whole entry): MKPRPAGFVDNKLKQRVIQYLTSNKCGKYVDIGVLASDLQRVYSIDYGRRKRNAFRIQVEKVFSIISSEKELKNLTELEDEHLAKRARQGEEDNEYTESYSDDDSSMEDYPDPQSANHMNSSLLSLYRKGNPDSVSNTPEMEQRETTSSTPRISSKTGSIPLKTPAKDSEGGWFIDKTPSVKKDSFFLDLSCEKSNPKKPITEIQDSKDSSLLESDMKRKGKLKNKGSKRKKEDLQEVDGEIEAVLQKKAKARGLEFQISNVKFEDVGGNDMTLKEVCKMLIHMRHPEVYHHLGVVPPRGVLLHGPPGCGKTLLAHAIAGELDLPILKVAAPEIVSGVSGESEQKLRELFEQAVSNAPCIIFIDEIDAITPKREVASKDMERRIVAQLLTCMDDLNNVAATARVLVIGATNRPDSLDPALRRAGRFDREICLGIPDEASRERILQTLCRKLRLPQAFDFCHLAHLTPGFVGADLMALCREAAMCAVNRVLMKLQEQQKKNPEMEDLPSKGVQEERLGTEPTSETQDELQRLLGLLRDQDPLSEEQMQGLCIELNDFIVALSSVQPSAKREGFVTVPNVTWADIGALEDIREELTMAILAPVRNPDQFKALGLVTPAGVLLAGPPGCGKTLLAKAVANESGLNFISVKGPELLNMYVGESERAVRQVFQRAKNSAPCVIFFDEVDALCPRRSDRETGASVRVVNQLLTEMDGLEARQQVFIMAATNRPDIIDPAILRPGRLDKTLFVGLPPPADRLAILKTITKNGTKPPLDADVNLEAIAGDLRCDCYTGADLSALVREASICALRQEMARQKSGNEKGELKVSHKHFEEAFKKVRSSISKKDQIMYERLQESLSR
- measurement-protocol: in-cell UV photocrosslinking, click dye, gel fluorescence of purified NVL
- Assay type: cell-based
quantity: pEC50
Kindly note that pEC50 refers to -log10 of the concentration in mol/L and answer with the value alone.

Value of measured pEC50 for the entry `C#CCOCCN1C(=O)c2ccccc2Sc2cc(NC(=O)c3ccc(N=[N+]=[N-])cc3)ccc21` : 6.31
